- test_target: human TYK2 catalytic kinase (JH1) domain (Homo sapiens (Human), UniProt P29597)
- Sequence (P29597 897-1176): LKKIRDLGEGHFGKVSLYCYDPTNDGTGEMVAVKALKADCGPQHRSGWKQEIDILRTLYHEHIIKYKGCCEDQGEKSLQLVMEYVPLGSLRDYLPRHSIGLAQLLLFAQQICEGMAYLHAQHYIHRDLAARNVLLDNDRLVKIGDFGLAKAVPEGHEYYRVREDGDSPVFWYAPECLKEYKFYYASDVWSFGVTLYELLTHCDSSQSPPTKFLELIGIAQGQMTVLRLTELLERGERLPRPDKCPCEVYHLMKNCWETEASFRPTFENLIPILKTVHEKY
- experiment_description: ADP-Glo Kinase Assay, recombinant TYK2 catalytic kinase (JH1) domain
- Format: biochemical
- condition_summary: recombinant JH1 domain 2 nM, 10 μM ATP, JAK3-974 peptide, mean, read-out: TYK2 biochem IC50 (nM) Mean
Exercise: state measured IC50 for each of the compounds provided.
Answers are plain numbers, in nM.

Provide reported IC50 for each item, in the same order as listed.
1. Cn1cc(-c2cc3c(N4CC5CCC(C4)N5C(=O)C4CC4)ncnn3c2)nn1 [Example 186]
2. Cn1cc(-c2nc3c(N4CC5CCC(C4)N5C(=O)[C@@H]4CC4(F)F)ccnc3[nH]2)cn1 [Example 201]
3. O=C([C@@H]1C[C@H]1F)N1C2CCC1CN(c1ccnn3cc(C4CC4)cc13)C2 [Example 24]
4. O=C([C@@H]1C[C@H]1F)N1C2CCC1CN(c1ncnc3[nH]c(-c4ccnc(C(F)(F)F)c4)cc13)C2 [Example 223]

1. 845
2. 1.5
3. 164
4. 23.9

###

- test_target: human JAK1 catalytic kinase (JH1) domain (Homo sapiens (Human), UniProt P23458)
- Sequence (P23458 875-1153): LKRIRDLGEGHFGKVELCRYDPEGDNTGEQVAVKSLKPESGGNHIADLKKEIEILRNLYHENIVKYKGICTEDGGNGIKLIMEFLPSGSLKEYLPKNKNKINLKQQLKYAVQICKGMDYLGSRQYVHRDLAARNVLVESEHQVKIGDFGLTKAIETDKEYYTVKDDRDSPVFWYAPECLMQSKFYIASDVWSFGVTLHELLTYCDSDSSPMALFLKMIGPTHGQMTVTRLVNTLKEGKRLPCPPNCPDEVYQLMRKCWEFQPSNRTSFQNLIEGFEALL
- experiment_description: ADP-Glo Kinase Assay, recombinant JAK1 catalytic kinase (JH1) domain
- Type: biochemical
- condition_summary: recombinant JH1 domain 4 nM, 35 μM ATP, JAK3-342 peptide, mean, read-out: JAK1 biochem IC50 (nM) Mean
observation_type: log10(IC50) (log10 of the value in nM)
A value of 2 here means IC50 of 100 in nM, since values are log10.

Some molecules with recorded log10(IC50):
Cc1cc(-c2cc3c(N4CC5CCC(C4)N5C(=O)C4CC4)ncnn3c2)on1 : 3.91
O=C([C@@H]1C[C@H]1F)N1C2CCC1CN(c1ccnn3cc(-c4ccc(=O)n(C(F)F)c4)cc13)C2 : 1.53
Cn1cc(-c2cc3c(N4CC5CCC(C4)N5C(=O)[C@@H]4C[C@H]4F)ccnc3[nH]2)cn1 : 1.00
O=C(C1CC1(F)F)N1C2CCC1CN(c1ncnn3cc(-c4cnn(C(F)F)c4)cc13)C2 (stereo not drawn) : 2.68

Provide reported log10(IC50) for each item, in the same order as listed.
1. Cn1cc(-c2cc3c(N4CC5CCC(C4)N5S(=O)(=O)[C@H]4CC4(F)F)ccnn3c2)cn1
2. O=C([C@H]1C[C@H]1F)N1C2CCC1CN(c1ncnn3cc(-c4cnn(C(F)F)c4)cc13)C2 (single isomer, unassigned) [Example 73]
3. Cn1cc(-c2cc3c(N4CC5CCC(C4)N5C(=O)[C@@H]4C[C@H]4F)ccnn3c2)c(F)n1

[2.51, 3.37, 1.96]

###

Exercise: state measured IC50 for each of the compounds provided.
- test_target: human TYK2 catalytic kinase (JH1) domain (Homo sapiens (Human))
- experiment_description: ADP-Glo Kinase Assay, recombinant TYK2 catalytic kinase (JH1) domain
- Type: biochemical
- condition_summary: recombinant JH1 domain 2 nM, 10 μM ATP, JAK3-974 peptide, mean, read-out: TYK2 biochem IC50 (nM) Mean
Where a name gives a salt, the structure may show the parent alone.
Numbers only, in nM.

Some compounds with recorded IC50:
Cn1cc(-c2cc3c(N4CC5CCC(C4)N5C(=O)[C@@H]4C[C@H]4F)ncnc3[nH]2)cn1 : 5.3
O=C([C@H]1C[C@H]1F)N1C2CCC1CN(c1ncnn3cc(-c4cnn(C(F)F)c4)cc13)C2 (single isomer, unassigned) [Example 73] : 987
Cc1cc(-c2cc3c(N4CC5CCC(C4)N5C(=O)[C@@H]4C[C@H]4F)ccnn3c2)ncn1 : 13.7
O=C([C@H]1C[C@@H]1F)N1C2CCC1CN(c1ncnn3cc(-c4cnn(C(F)F)c4)cc13)C2 [Example 4] : 73.6
Cc1cc(-c2cc3c(N4CC5CCC(C4)N5C(=O)[C@@H]4C[C@H]4F)ccnn3c2)ccn1 : 2.5
CC(F)(F)C(=O)N1C2CCC1CN(c1ncnn3cc(-c4cnn(C(F)F)c4)cc13)C2 : 233
Cc1cc(-c2nc3c(N4CC5CCC(C4)N5C(=O)[C@@H]4C[C@H]4F)ccnc3[nH]2)ccn1 : 2.5
Cn1cc(-c2cc3c(N4CC5CCC(C4)N5C(=O)CC(F)(F)F)ncnn3c2)cn1 : 652

Provide reported IC50 for each item, in the same order as listed.
1. Cn1cc(-c2nc3c(N4CC5CCC(C4)N5C(=O)[C@@H]4C[C@H]4F)c(F)cnc3[nH]2)c(F)n1
2. CN(C)c1ccc(-c2cc3c(N4CC5CCC(C4)N5C(=O)[C@@H]4C[C@H]4F)ncnc3[nH]2)cn1
3. O=C(C1CC1)N1C2CCC1CN(c1ncnc3[nH]c(-c4cnn(C(F)F)c4)cc13)C2
4. COc1nn(C)cc1-c1cc2c(N3CC4CCC(C3)N4C(=O)[C@@H]3C[C@H]3F)ncnn2c1
5. C[C@]1(F)C[C@H](C(=O)N2C3CCC2CN(c2ncnn4cc(-c5cnn(C(F)F)c5)cc24)C3)C1
6. COc1cc(-c2cc3c(N4CC5CCC(C4)N5C(=O)[C@@H]4C[C@H]4F)ccnn3c2)c(F)cn1
7. Cn1cc(-c2cc3c(N4CC5CCC(C4)N5C(=O)C4COC4)ncnn3c2)cn1
8. Cn1cc(-c2cc3c(N4CC5CCC(C4)N5C(=O)C4(F)CC4)ccnc3[nH]2)c(F)n1

[2.5, 14.9, 23.6, 9.8, 510, 16, 911, 2.8]

Provide reported IC50 for each item, in the same order as listed.
1. N#C[C@H]1C[C@@H]1C(=O)N1C2CCC1CN(c1ncnn3cc(-c4cnn(C(F)F)c4)cc13)C2 (racemic)
2. O=C(C1CC1(F)F)N1C2CCC1CN(c1ncnn3cc(-c4cnn(C(F)F)c4)cc13)C2 (stereo not drawn)
3. CCOC1CC1C(=O)N1C2CCC1CN(c1ncnn3cc(-c4cnn(C(F)F)c4)cc13)C2 (stereo not drawn) [Example 35, trifluoroacetate]
4. CC1(C(=O)N2C3CCC2CN(c2ncnn4cc(-c5cnn(C(F)F)c5)cc24)C3)CCC1
5. Cn1cc(-c2cc3c(N4CC5CCC(C4)N5C(=O)[C@@H]4C[C@H]4F)ncnn3c2)cc(F)c1=O

166
81
856
425
95

Provide reported IC50 for each item, in the same order as listed.
1. COc1cc(-c2cc3c(N4CC5CCC(C4)N5C(=O)[C@@H]4C[C@H]4F)ccnn3c2)cnn1
2. Cn1cc(-c2cc3c(N4CC5CCC(C4)N5C(=O)C4CC4)ccnc3[nH]2)cn1
3. O=C(C1CC1)N1C2CCC1CN(c1ccnn3cc(-c4cnn(C(F)F)c4)cc13)C2
4. O=C([C@H]1CC1(F)F)N1C2CCC1CN(c1ncnn3cc(-c4cnn(C(F)F)c4)cc13)C2 (single isomer, unassigned) [Example 77]

1: 17.6; 2: 3.8; 3: 13.8; 4: 46.3

Provide reported IC50 for each item, in the same order as listed.
1. Cc1cc(-c2cc3c(N4CC5CCC(C4)N5C(=O)C4CC4)ncnn3c2)on1
2. O=C(N1C2CCC1CN(c1ncnn3cc(-c4cnn(C(F)F)c4)cc13)C2)C1(C(F)(F)F)CC1
3. O=C([C@H]1C[C@H](C(F)(F)F)C1)N1C2CCC1CN(c1ncnn3cc(-c4cnn(C(F)F)c4)cc13)C2

1: 656; 2: 988; 3: 636

Provide reported IC50 for each item, in the same order as listed.
1. Cn1cc(-c2cc3c(N4CC5CCC(C4)N5C(=O)CC#N)ccnn3c2)cn1
2. Cn1cc(-c2cc3c(N4CC5CCC(C4)N5C(=O)C4CC4)ncnn3c2)c(F)n1

1: 9.8; 2: 202

###

- test_target: human JAK2 catalytic kinase (JH1) domain (Homo sapiens (Human), UniProt O60674)
- Sequence (O60674 849-1124): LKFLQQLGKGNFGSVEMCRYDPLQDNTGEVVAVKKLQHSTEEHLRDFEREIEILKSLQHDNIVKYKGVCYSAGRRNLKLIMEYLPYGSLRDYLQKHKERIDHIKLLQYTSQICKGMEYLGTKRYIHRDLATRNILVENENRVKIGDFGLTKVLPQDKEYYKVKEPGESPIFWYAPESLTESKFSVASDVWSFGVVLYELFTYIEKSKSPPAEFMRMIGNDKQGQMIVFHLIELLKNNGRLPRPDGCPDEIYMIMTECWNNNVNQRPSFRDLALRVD
- experiment_description: ADP-Glo Kinase Assay, recombinant JAK2 catalytic kinase (JH1) domain
- Format: biochemical
- condition_summary: recombinant JH1 domain 0.2 nM, 15 μM ATP, JAK3-974 peptide, mean, read-out: JAK2 biochem IC50 (nM) Mean
Where a name gives a salt, the structure may show the parent alone.
observation_type: log10(IC50) (log10 of the value in nM)
A value of 2 here means IC50 of 100 in nM, since values are log10.

Some molecules with recorded log10(IC50):
Cn1cc(-c2nc3c(N4CC5CCC(C4)N5S(=O)(=O)C4CC4)ccnc3[nH]2)cn1 : 1.58
COc1cc(-c2nc3c(N4CC5CCC(C4)N5S(=O)(=O)C4CC4)ccnc3[nH]2)ccn1 : 2.23
Cn1cc(-c2nc3c(N4CC5CCC(C4)N5C(=O)[C@@H]4CC4(F)F)ccnc3[nH]2)cn1 : 0.95
COc1nn(C)cc1-c1cc2c(N3CC4CCC(C3)N4C(=O)[C@@H]3C[C@H]3F)ncnn2c1 : 2.33
COc1ccc(-c2cc3c(N4CC5CCC(C4)N5C(=O)C4CC4)ncnn3c2)cn1 : 4.00
N#C[C@@H]1C[C@@H]1C(=O)N1C2CCC1CN(c1ncnn3cc(-c4cnn(C(F)F)c4)cc13)C2 (racemic) : 3.92

For CC(C(=O)N1C2CCC1CN(c1ncnn3cc(-c4cnn(C(F)F)c4)cc13)C2)C(F)(F)F (stereo not shown) [Example 31, trifluoroacetate] , what is its reported log10(IC50)?
3.65

Where do the numbers come from? From patent US20240360157A1.
